- measurementTarget: recombinant USP30 (amino acids 57-517 of the human sequence) (Homo sapiens (Human), UniProt Q70CQ3)
- Sequence (Q70CQ3 57-517): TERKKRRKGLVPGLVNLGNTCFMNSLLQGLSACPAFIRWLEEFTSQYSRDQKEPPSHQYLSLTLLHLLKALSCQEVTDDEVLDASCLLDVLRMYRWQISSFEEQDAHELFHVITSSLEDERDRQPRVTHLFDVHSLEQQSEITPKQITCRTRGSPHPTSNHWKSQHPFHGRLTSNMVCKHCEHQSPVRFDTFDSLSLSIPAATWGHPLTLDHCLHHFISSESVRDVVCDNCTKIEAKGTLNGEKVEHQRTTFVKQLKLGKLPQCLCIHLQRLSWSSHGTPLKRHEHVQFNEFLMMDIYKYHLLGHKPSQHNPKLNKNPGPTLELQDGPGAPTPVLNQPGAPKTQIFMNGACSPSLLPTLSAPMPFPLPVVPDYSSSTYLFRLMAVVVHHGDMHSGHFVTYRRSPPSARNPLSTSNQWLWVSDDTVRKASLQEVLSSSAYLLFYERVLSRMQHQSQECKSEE
- procedureText: In vitro USP30 biochemical assay (Ubiquitin-Rhodamine substrate)
- testConditions: 1.5 nM recombinant USP30, 25 nM Ubiquitin-Rhodamine, fluorescence
Here, each record is paired with measured IC50 data.

These recorded examples may help you get a feel for the data.
CC(C)(C)NS(=O)(=O)c1ccc(-c2nc([C@H](Cc3ccccc3)NC(=O)c3ccc(F)cc3)n[nH]2)cc1 (stereo in doubt)	1 to 10 µM
CC(C)C[C@H](NC(=O)c1ccccc1)C(=O)NC1CN(C(=O)OCc2ccccc2)C1	1 to 10 µM
CC(C)(C)NS(=O)(=O)c1ccc(NC(=O)[C@H](Cc2ccccc2)NC(=O)c2ccc3nn[nH]c3c2)cc1	0.05 to 1 µM
CN1CCC(C[C@H](NC(=O)N2CCOCC2)C(=O)Nc2ccc(S(=O)(=O)NC(C)(C)C)cc2)CC1	1 to 10 µM
CC(C)(C)NS(=O)(=O)c1ccc(NC(=O)[C@H](CC2CCNCC2)NC(=O)N2CCOCC2)cc1	1 to 10 µM
CN1CCC(NS(=O)(=O)c2ccc(NC(=O)[C@H](CC3CCOCC3)NC(=O)c3ccc(F)cc3)cn2)CC1	1 to 10 µM
CC(C)(CO)NS(=O)(=O)c1ccc(NC(=O)[C@@H]2C[C@@H](C3CCCCC3)CN2C(=O)c2ccc(F)cc2)cc1	1 to 10 µM
O=C(N[C@@H](Cc1ccccc1)C(=O)Nc1ccc(S(=O)(=O)NC2(CO)CC2)nc1)c1ccc(F)cc1	0.05 to 1 µM
O=C(N[C@@H](Cc1ccccc1)C(=O)Nc1ccc(S(=O)(=O)NC2COC2)c(C(F)(F)F)c1)c1ccc(F)cc1	0.05 to 1 µM
CCN1CCC(C[C@H](NC(=O)c2ccc(F)cc2)C(=O)Nc2ccc(S(=O)(=O)NC(C)(C)C)cc2)CC1	0.05 to 1 µM

// field: IC50; key: CN1CCC(C[C@H](NC(=O)c2ccc(F)cc2)C(=O)Nc2ccc(S(=O)(=O)NC3COC3)nc2)CC1 ; value = 1 to 10 µM

// field: IC50; key: COc1cc(NC(=O)[C@H](CC2CCN(C)CC2)NC(=O)c2ccc(F)cc2)ccc1S(=O)(=O)NC(C)(C)C ; value = 0.05 to 1 µM

// field: IC50; key: O=C(N[C@@H](CC1CCNCC1)C(=O)Nc1ccc(S(=O)(=O)N[C@@H]2CCOC2)nc1)c1ccc(F)cc1 ; value = 0.05 to 1 µM

// field: IC50; key: COc1cc(NC(=O)[C@H](CC2CCN(C)CC2)NC(=O)c2ccc(F)cc2)ccc1S(=O)(=O)N[C@@H]1CCOC1 ; value = 0.05 to 1 µM
